- System: K562 CRISPRi cells
- EXPERIMENT_DESCRIPTION: Perturb-seq pooled growth measurement (sgRNA counts, growth phenotype γ, relative activity)
- Type: cell-based, human
- SETTINGS: sequencing read counts; T0 = day two after transduction
Condition met means recorded Perturb-seq pooled growth sgRNA counts, T0 is 5000 or above; Condition not met means it is below 5000.

Query: Evaluate non-targeting_00406: non-targeting negative control sgRNA, GGCGCCGGACTGGACCTCGA, SEQ ID NO: 167 (listed as DNA, chemistry not fully specified) [reference compound] : Perturb-seq pooled growth sgRNA counts, T0 at minimum 5000?
Result: Condition met

Query: I'd appreciate it if you could say whether TUBB_+_30688126.23-P1_03: sgRNA targeting TUBB, GCGGCAGCAAGGTTCTGAGA, SEQ ID NO: 108 (listed as DNA, chemistry not fully specified) has Perturb-seq pooled growth sgRNA counts, T0 at least equal to 5000.
Result: Condition not met

Query: Does Perturb-seq pooled growth sgRNA counts, T0 meet or surpass 5000 for SEC61A1_−_127771295.23-P1_01: sgRNA targeting SEC61A1, GGCACTGTCGTGTCTCTCGG, SEQ ID NO: 85 (listed as DNA, chemistry not fully specified) ?
Result: Condition met

Query: Given the entry ALDOA_+_30077139.23-P1P2_00: sgRNA targeting ALDOA, GGTCACCAGGACCCCTTCTG, SEQ ID NO: 156 (listed as DNA, chemistry not fully specified) , answer whether its Perturb-seq pooled growth sgRNA counts, T0 meets or surpasses 5000.
Result: Condition met

Query: Dear colleague, could you confirm whether COX11_+_53045977.23-P1P2_10: sgRNA targeting COX11, GGCTCTGGCGTCCCGGATGG, SEQ ID NO: 145 (listed as DNA, chemistry not fully specified) has Perturb-seq pooled growth sgRNA counts, T0 at or above 5000?
Result: Condition met

Further cases:
Query: Please check the record non-targeting_01040: non-targeting negative control sgRNA, GTACGGCATGGCGCACTGCG, SEQ ID NO: 170 (listed as DNA, chemistry not fully specified) [reference compound] and state if its Perturb-seq pooled growth sgRNA counts, T0 is at or above 5000.
Result: Condition not met

Query: Is reported Perturb-seq pooled growth sgRNA counts, T0 greater than or equal to 5000 here: RPS15_−_1438413.23-P1P2_07: sgRNA targeting RPS15, GACCAAAGCGGTCTCTTCTG, SEQ ID NO: 61 (listed as DNA, chemistry not fully specified)
Result: Condition met

* * *

- Tested on: K562 CRISPRi cells
- EXPERIMENT_DESCRIPTION: Perturb-seq pooled growth measurement (sgRNA counts, growth phenotype γ, relative activity)
- Type: cell-based, human
- SETTINGS: pooled growth phenotype γ of the Perturb-seq sgRNA, day 5, K562 CRISPRi cells
Provide the recorded gamma_day5 for the entries that follow.
Numbers only.

Give one value of gamma_day5 per listed substance.
1. TUBB_ + _30688126.23-P1_03 (guide GCGGCAGCAAGGTTCTGAGA; listed as DNA, chemistry not fully specified)
2. RPL9_ + _39460483.23-P1P2_07 (guide GGATGTTTCTGCGCTCGTGG; listed as DNA, chemistry not fully specified)
3. DBR1_ + _137893744.23-P1P2_00 (guide GTTTGCAGGAGTCTACACCC; listed as DNA, chemistry not fully specified)
4. CDC23_ −_137548987.23-P1P2_00 (guide GACAGCCACCGGGACCATGG; listed as DNA, chemistry not fully specified)
5. BCR_ + _23523092.23-P1P2_05 (guide GCGCGCGGCGCCCGTCTCAG; listed as DNA, chemistry not fully specified)
6. DUT_ + _48624411.23-P1P2_01 (guide GCCAGCGAGGAGACCACCGG; listed as DNA, chemistry not fully specified)
7. RPS18_ + _33239917.23-P1P2_01 (guide GCTGCAATGCCGCTGGATCA; listed as DNA, chemistry not fully specified)

Result:
["−0.6926", "−0.2924", "−0.4556", "−1.176", "−0.3535", "−0.7924", "−0.5598"]
